# protocol.notes: Toxicity liver stage against HepG2, at 10uM
# Format: cell-based
# Parameters: test concentration 10 uM, cell line HepG2-A16-CD81EGFP
# applied.conditions: human, HepG2-A16-CD81EGFP cells; read-out: INHIBITION
Give cytotoxicity at 10 µM for every item shown.
Write the value in % as a bare number.

GET /value?item= CCc1noc(C(C)N2CCN(C)CC2)n1 (centres undefined) &field=cytotoxicity at 10 µM returns -3.21

GET /value?item= CS(=O)(=O)N1CC[C@H]2OCC[C@@]2(C(=O)NCCc2ccccn2)C1 &field=cytotoxicity at 10 µM returns -101

GET /value?item= Cc1nc(C)n(CCCn2ccnc2-c2cc3n(n2)CCCNC3)n1 &field=cytotoxicity at 10 µM returns 3.71

GET /value?item= O=C(C1CC1)N1CCc2c(ncnc2N2CCN3CCCC3C2)C1 (centres undefined) &field=cytotoxicity at 10 µM returns -13.6

GET /value?item= Cc1cccc(OC2CCN(C(=O)c3ccc4ncsc4c3)CC2)n1 &field=cytotoxicity at 10 µM returns -3.78

GET /value?item= O=C(Nc1cnccn1)[C@@H]1COC[C@H]2CN(c3ncc(F)cn3)C[C@H]21 &field=cytotoxicity at 10 µM returns -11.7

GET /value?item= COc1ccc(C(=O)N(C2CC2)C2CC(=O)NC2=O)cc1 (centres undefined) &field=cytotoxicity at 10 µM returns -10.7

GET /value?item= Cc1nc(C)c(C(=O)NCc2nc3cccc(C)c3n2C)o1 &field=cytotoxicity at 10 µM returns 40.1

GET /value?item= Cc1nn(CC(=O)n2cccn2)c(C)c1I &field=cytotoxicity at 10 µM returns -11.5

GET /value?item= CS(=O)(=O)N[C@@H]1CCO[C@]2(CCN(C(=O)C3=CCCC3)C2)C1 &field=cytotoxicity at 10 µM returns 0.693

GET /value?item= COc1ccc(CCN2CCCC(CN(C)Cc3ccc(C)o3)C2)cc1 (centres undefined) &field=cytotoxicity at 10 µM returns -14.5

GET /value?item= CN(C)C(=O)c1ccc2c(c1)N(C)C(CC(=O)NC(CO)CO)CO2 (centres undefined) &field=cytotoxicity at 10 µM returns -4.36

GET /value?item= CCOC(=O)NCCNC(=O)c1cc(Br)cn1C(C)C &field=cytotoxicity at 10 µM returns 9.08

GET /value?item= Cc1ccc([C@@H]2CN(S(=O)(=O)c3ccccc3)C[C@H]2N(C)C)cc1 &field=cytotoxicity at 10 µM returns -4.44

GET /value?item= CC(=O)Nc1nc(C(=O)NCc2ccc(N3CCOCC3)nc2)cs1 &field=cytotoxicity at 10 µM returns -14

GET /value?item= CNC(=O)[C@@H](c1ccccc1F)N1CCC[C@H]1C(=O)NC1CCOCC1 &field=cytotoxicity at 10 µM returns -3.73

GET /value?item= CCc1ccsc1C(=O)N1CCN(CC(C)(C)O)CC1 &field=cytotoxicity at 10 µM returns -13.1

GET /value?item= Oc1cc(C2CCCCN2Cc2cccs2)nc(-c2ccccn2)n1 (centres undefined) &field=cytotoxicity at 10 µM returns 39.1

GET /value?item= c1cnc(N2CCOCC3(C2)CN(c2nccs2)CCO3)nc1 (centres undefined) &field=cytotoxicity at 10 µM returns -104

GET /value?item= O=C(NCc1ccccc1Cn1cncn1)N1CCCC1 &field=cytotoxicity at 10 µM returns -5

GET /value?item= CC(C)Oc1cccc(C(O)CNC(=O)NCc2cccs2)c1 (centres undefined) &field=cytotoxicity at 10 µM returns -2.79

GET /value?item= Cc1nc(C)n(CC2CCCN2CC(=O)NCc2ccco2)n1 (centres undefined) &field=cytotoxicity at 10 µM returns -18.5

GET /value?item= CN(CC(=O)Nc1ccncc1)C1CCCN(c2cccnn2)C1 (centres undefined) &field=cytotoxicity at 10 µM returns -3.44

GET /value?item= CCOc1ccc(C#N)cc1NCC(=O)NC(=O)Nc1ccccc1 &field=cytotoxicity at 10 µM returns -11.8

The origin of these recorded values is ChEMBL document CHEMBL4513216.
